meta.source: patent US11008314B2

Experiment: Rat PO PK
Settings: in vivo, 6 mg/kg, PO 6 mpk
Hi, to clarify the labels: YES covers AUC(0-t) from 3 ng·h/mL upward, NO covers anything below 3 ng·h/mL.

[
  {
    "compound-structure": "C=CC(=O)N1CCN(C(=O)c2cc(Sc3cnc(NC(=O)C4CC4)s3)c(C)cc2OC)CC1",
    "category-label": "YES"
  }
]

Does C=CC(=O)N1CCCN(C(=O)c2cc(Sc3cnc(NC(=O)c4cccc(CN(C)C)c4)s3)c(C)cc2OC)CC1 have a reported AUC(0-t) of at least 3 ng·h/mL?
NO

Param item: C=CC(=O)N1CCCN(C(=O)c2cc(Sc3cnc(NC(=O)C4CC4)s3)c(C)cc2OC)C[C@H]1C
YES

Param item: C=CC(=O)N1CCN(C(=O)c2cc(Sc3cnc(NC(=O)C4CC4)s3)c(C)cc2OC)C[C@H]1C
YES

Param item: C=CC(=O)N1CCCN(C(=O)c2cc(Sc3cnc(NC(=O)c4ccc(F)c(CN(C)C)c4)s3)c(C)cc2OC)CC1
YES

###

Biological target: ITK (Homo sapiens (Human), UniProt Q08881)
Sequence (Q08881 whole entry): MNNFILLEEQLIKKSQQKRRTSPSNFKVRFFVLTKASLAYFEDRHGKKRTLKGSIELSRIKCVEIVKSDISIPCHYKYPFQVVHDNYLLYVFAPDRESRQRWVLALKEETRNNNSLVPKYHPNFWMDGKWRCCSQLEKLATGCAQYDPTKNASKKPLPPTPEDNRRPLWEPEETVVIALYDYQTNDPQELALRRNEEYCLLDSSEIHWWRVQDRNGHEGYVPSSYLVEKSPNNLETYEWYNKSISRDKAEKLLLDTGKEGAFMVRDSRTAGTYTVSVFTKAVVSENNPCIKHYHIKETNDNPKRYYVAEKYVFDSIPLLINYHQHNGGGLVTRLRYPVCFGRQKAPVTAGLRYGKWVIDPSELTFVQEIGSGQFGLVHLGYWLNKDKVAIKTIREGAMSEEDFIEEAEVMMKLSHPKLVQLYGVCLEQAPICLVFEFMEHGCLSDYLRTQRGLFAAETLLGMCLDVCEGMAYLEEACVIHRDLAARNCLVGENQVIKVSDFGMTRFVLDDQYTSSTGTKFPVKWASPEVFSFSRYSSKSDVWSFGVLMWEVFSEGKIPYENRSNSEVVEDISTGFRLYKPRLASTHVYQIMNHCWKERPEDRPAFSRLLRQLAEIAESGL
Assay: IC50 against ITK
Format: biochemical
quantity-kind: IC50

Consider the worked cases shown below.
[
  {
    "compound": "C=CC(=O)N1CCN(C(=O)c2cc(Sc3cnc(NC(=O)c4ccsc4)s3)c(C)cc2OC)C[C@H]1CC [Compound 113]",
    "IC50": "< 10 nM"
  },
  {
    "compound": "C=CC(=O)N1CCCN(C(=O)c2cc(Sc3cnc(NC(=O)C(C)(C)C)s3)c(C)cc2OC)CC1 [Compound 57]",
    "IC50": "100 to 1000 nM"
  },
  {
    "compound": "C=CC(=O)N1CCN(C(=O)c2cc(Sc3cnc(NC(=O)C4CC4)s3)c(C)cc2C)C[C@H]1C#N [Compound 118]",
    "IC50": "≥ 10000 nM"
  },
  {
    "compound": "C=CC(=O)N1CCN(C(=O)c2cc(Sc3cnc(NC(=O)c4ccccn4)s3)c(C)cc2OC)CC1 [Compound 95]",
    "IC50": "10 to 100 nM"
  },
  {
    "compound": "C=CC(=O)N1CC2(CCN(C(=O)c3cc(Sc4cnc(NC(=O)C5CC5)s4)c(C)cc3OC)C2)C1 [Compound 45]",
    "IC50": "< 10 nM"
  },
  {
    "compound": "C=CC(=O)N1CCN(C(=O)c2cc(Sc3cnc(NC(=O)C4CC4)s3)c(C)cc2C)C[C@H]1C [Compound 75]",
    "IC50": "< 10 nM"
  },
  {
    "compound": "C=CC(=O)N1CCN(C(=O)c2cc(Sc3cnc(NC(=O)C4CC4)s3)c(C)cc2CC)C[C@H]1CC [Compound 104]",
    "IC50": "< 10 nM"
  },
  {
    "compound": "C=CC(=O)N1CCCN(C(=O)c2cc(Sc3cnc(NC(=O)C4CC4)s3)c(C)cc2C)CC1 [Compound 74]",
    "IC50": "< 10 nM"
  }
]

Record request: IC50 value, item C=CC(=O)N1CC[C@@H](N(C)C(=O)c2cc(Sc3cnc(Nc4ccccn4)s3)c(C)cc2OC)C1 [Compound 154]
< 10 nM

Param item: C=CC(=O)N1[C@@H]2CC[C@H]1CN(C(=O)c1cc(Sc3cnc(NC(=O)c4ccsc4)s3)c(C)cc1OC)C2 [Compound 155]
< 10 nM

Param item: C=CC(=O)N1CCN(C(=O)c2cc(Sc3cnc(NC(=O)C4CCC4)s3)c(C)cc2OC)CC1 [Compound 84]
< 10 nM

Param item: C=CC(=O)N1CCN(C(=O)c2cc(Sc3cnc(Nc4ccccn4)s3)c(C)cc2OC)C[C@H]1C#N [Compound 153]
< 10 nM

Param item: C=CC(=O)N1CCN(C(=O)c2cc(Sc3cnc(NC(=O)c4cccc(CN(C)C)c4)s3)c(C)cc2C)C[C@H]1C#N [Compound 125]
< 10 nM

Param item: C=CC(=O)N1CCN(C(=O)c2cc(Sc3cnc(NC(=O)C4CC4)s3)c(C)cc2CC)CC1 [Compound 106]
< 10 nM

Param item: C=CC(=O)N1CCCN(C(=O)c2cc(Sc3cnc(NC(=O)c4cccc(CN5CCOCC5)c4)s3)c(C)cc2OC)CC1 [Compound 49]
10 to 100 nM

Param item: C=CC(=O)N1CCN(C(=O)c2cc(Sc3cnc(NC(=O)c4cccc(CN(C)C)c4)s3)c(C)cc2OC)CC1 [Compound 14]
< 10 nM

Param item: C=CC(=O)N1CCN(C(=O)c2cc(Sc3cnc(NC(=O)C4CC4)s3)ccc2OC)C[C@H]1C [Compound 79]
10 to 100 nM

Param item: C=CC(=O)N1CCN(C(=O)c2cc(Sc3cnc(NC(=O)C4CC4)s3)c(F)cc2C)C[C@H]1C [Compound 82]
10 to 100 nM

Param item: C=CC(=O)N1CCN(C(=O)c2cc(Sc3cnc(NC(=O)c4ccsc4)s3)c(C)cc2OC)[C@@H](C)C1 [Compound 144]
< 10 nM
